Molecular target: Sodium/potassium-transporting ATPase
Test: Inhibition of [3H]- ouabain binding to digitalis receptor
pIC50: −log10 of the molar value.
Quick rule: pIC50 of at least 7 means satisfied, below that means not satisfied.

CC1O[C@@H](O[C@H]2CC[C@@]3(C)[C@H](CC[C@@H]4[C@@H]3CC[C@]3(C)[C@@H](C(=O)O)CC[C@]43O)C2)C[C@@H](O)[C@@H]1O (stereo not given in full)    not satisfied
CC1O[C@@H](O[C@H]2CC[C@@]3(C)[C@H](CC[C@@H]4[C@@H]3CC[C@]3(C)[C@@H](CC[N+](=O)[O-])CC[C@]43O)C2)C(O)[C@@H](O)[C@H]1O (stereo not given in full)    satisfied
C[C@H]1O[C@@H](O[C@H]2CC[C@@]3(C)[C@H](CC[C@@H]4[C@@H]3CC[C@]3(C)[C@@H](CN)CC[C@]43O)C2)C[C@@H](O)[C@@H]1O    not satisfied

Could you now consider this next molecule?
[ask] Evaluate CC1O[C@@H](O[C@H]2CC[C@@]3(C)[C@H](CC[C@@H]4[C@@H]3CC[C@]3(C)[C@@H](C[N+](=O)[O-])CC[C@]43O)C2)C(O)[C@@H](O)[C@H]1O (stereo not given in full) : pIC50 at minimum 7?
[reply] satisfied

Origin of values: ChEMBL document CHEMBL1126931
